Recorded Activity by entry
Organism: Homo sapiens
assay_comment: Binding affinity to RBC membrane receptor in 150 uU/mL neuraminidase pretreated human RBC relative to untreated RBC
endpoint_label: Activity

>  <substance>
H-NILMDEIENYVKKYTESNRI-OH

>  <endpoint_label>
Activity

>  <assay_result>
94.3%

$$$$
>  <substance>
H-LFDYTHLWDNAQFTRTKENI-OH

>  <endpoint_label>
Activity

>  <assay_result>
166%

$$$$
>  <substance>
H-CIQIKKKVDELYNIYDQLFK-OH

>  <endpoint_label>
Activity

>  <assay_result>
80.7%

$$$$
>  <substance>
H-LNFTHKTIQQILQQQYKNNT-OH

>  <endpoint_label>
Activity

>  <assay_result>
94.9%

$$$$
>  <substance>
H-QEQNRIYNELQNKIKQIKNV-OH

>  <endpoint_label>
Activity

>  <assay_result>
93%

$$$$
>  <substance>
H-QEKNTLAQFLYNADIKKYID-OH

>  <endpoint_label>
Activity

>  <assay_result>
110%

$$$$
>  <substance>
H-KIMQNIQQTTNRLKINIKKIY-OH

>  <endpoint_label>
Activity

>  <assay_result>
129%

$$$$
>  <substance>
H-KHIVNKIQENFKLNQNKYIH-OH

>  <endpoint_label>
Activity

>  <assay_result>
115%

$$$$
>  <substance>
H-QIYKNELKDRIKETQTKINL-OH

>  <endpoint_label>
Activity

>  <assay_result>
128%

$$$$
>  <substance>
H-NTTETQLNHIKQNINHFKYF-OH

>  <endpoint_label>
Activity

>  <assay_result>
89.5%

$$$$
